Values were extracted from ChEMBL document CHEMBL1201862.

# System: SF-539
# method.description: NCI tumour cell line growth inhibition, 48 h
Activity calls are given as the source filed them. Rule as the data show it: active = GI50 up to about 1.1 µM and inactive = higher.
Classes to choose from: active, inactive

> print(dat)
                                   molecule  assigned.class
1    CC(C)c1ccccc1NC(=O)C(=O)Cc1nc2ccccc2s1        inactive
2            O=C(O)c1ccc(OCc2ccccc2)c(Cl)c1        inactive
3  N#Cc1cc2c(cc1C#N)/C(=N\c1cccc(N)n1)N/C2=N\c1cccc(N)n1        inactive
4            c1ccc(C[n+]2ccc3c(c2)CCCC3)cc1        inactive
5  Cc1cc(S(=O)(=O)n2ccnc2Oc2ccccc2)c(SSc2cc(Cl)c(C)cc2S(=O)(=O)n2ccnc2Oc2ccccc2)cc1Cl        inactive
6  CCOC(=O)C(NC(=O)Nc1ccc(Cl)cc1)(OC)C(F)(F)F (stereo not given)        inactive

Which outcome did this test record for the molecule CSc1nc(NC2OC(COC(C)=O)C(OC(C)=O)C(OC(C)=O)C2OC(C)=O)c(/N=C(\C)C(C)=O)c(=O)[nH]1 (stereo not given) ? inactive

Which outcome did this test record for the molecule COC(=O)/C=C\[C@@H]1[C@H](C)N1S(=O)(=O)c1ccc(C)cc1 (stereo not given in full) ? inactive

Which outcome did this test record for the molecule C=C1CC(c2ccc(OCCCN3C(=O)c4ccccc4C3=O)cc2)OC1=O (stereo not given) ? active
